So I've got a bunch of compounds here, and I need their pIC50 (REN) values.
# SYSTEM UNDER TEST: RORγ (UniProt P51449)
# Sequence (P51449 1-518): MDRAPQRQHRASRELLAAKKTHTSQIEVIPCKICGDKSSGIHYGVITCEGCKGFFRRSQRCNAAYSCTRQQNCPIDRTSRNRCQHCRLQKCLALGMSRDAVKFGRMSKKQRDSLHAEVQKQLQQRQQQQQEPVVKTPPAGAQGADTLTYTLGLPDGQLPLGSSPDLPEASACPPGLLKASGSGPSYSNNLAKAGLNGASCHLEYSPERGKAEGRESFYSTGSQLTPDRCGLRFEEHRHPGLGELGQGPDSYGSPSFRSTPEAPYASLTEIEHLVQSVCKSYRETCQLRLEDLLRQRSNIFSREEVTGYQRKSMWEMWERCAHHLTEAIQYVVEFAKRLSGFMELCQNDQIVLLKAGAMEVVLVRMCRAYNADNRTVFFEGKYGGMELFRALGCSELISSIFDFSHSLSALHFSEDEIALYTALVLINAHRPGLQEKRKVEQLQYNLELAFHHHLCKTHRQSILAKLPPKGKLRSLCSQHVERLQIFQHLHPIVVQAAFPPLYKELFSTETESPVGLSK
# METHOD: RORγ Gal4 Reporter Gene Assay in 293T cells (firefly and renilla luciferase)
# Assay type: cell-based, human
# MEASUREMENT CONTEXT: third value of the cell; Gal4 reporter gene assay in 293T cells, renilla normalised luciferase
Respond with the number and no other words.

Summary for this compound, Cc1c(C(=O)N[C@H]2C[C@H](C(=O)O)C2)cc(-c2ccc(S(=O)(=O)NC(C)(C)C)c(C(C)(C)O)c2)n1CC1CCCCC1 [17/328] : pIC50 (REN) is 6.6

Measured pIC50 (REN) of Cc1c(C(=O)NC[C@@H](C)O)cc(-c2cc(C(C)(C)C)cc(C(C)(C)C)c2)n1CC1CCCCC1 [1/59] : 6.3

Please fill in: pIC50 (REN) reported for Cc1c(C(=O)N[C@H]2C[C@H](C(=O)O)C2)cc(-c2cc(C(=O)NC(C)(C)C)nc(C3(C)CC3)n2)n1CC1CCCCC1 [17/372] = 6.2

// pIC50 (REN) value for Cc1c(C(=O)N[C@@H]2CCOC2)cc(-c2cc(C(C)(C)C)c3c(c2)C2(CCO3)CC2)n1CC1CCCCC1 [1/96] : 6.8

====

# SYSTEM UNDER TEST: RORγ (UniProt P51449)
# METHOD: RORγ Gal4 Reporter Gene Assay in 293T cells (firefly and renilla luciferase)
# Format: cell-based, human
# MEASUREMENT CONTEXT: third value of the cell; Gal4 reporter gene assay in 293T cells, renilla normalised luciferase
ASSAY ENDPOINT: pIC50 (REN)
API doc: respond with a numeric literal and nothing else, no unit.

molecule Cc1c(C(=O)NCC2(O)CCOCC2)cc(-c2cc(C(C)(C)C)cc(C3(C)CC3)c2)n1CC1CCCCC1 , pIC50 (REN) observed: 7.7

// sample Cc1c(C(=O)NCCc2noc(=O)[nH]2)cc(-c2cc(C(C)(C)C)cc(C3(C)CC3)c2)n1CC1CCCCC1 , its pIC50 (REN) was 7.9

Value of measured pIC50 (REN) for the entry Cc1c(C(=O)NC2CC(C)(O)C2)cc(-c2cc(C(C)(C)C)c3c(c2)C2(CCO3)CC2)n1CC1CCCCC1 (stereo not drawn) : 6.6

For this molecule ( Cc1c(C(=O)NC2CCOCC2)cc(-c2cc3c(c(C(C)(C)C)c2)OCCC3=NO)n1CC1CCCCC1 ), measured pIC50 (REN) is 6.5

The molecule identified as Cc1c(C(=O)NC2CCOCC2)cc(-c2cc3c(c(C(C)(C)C)c2)OCCC3=O)n1CC1CCCCC1 registered its pIC50 (REN) at 6.7

For reference, reported pIC50 (REN) for Cc1c(C(=O)N[C@H]2C[C@H](C(=O)O)C2)cc(-c2ccc(-c3nnc(C(C)(C)C)o3)c(C(C)(C)C)c2)n1CC1CCCCC1 stands at 6.6

// Cc1c(C(=O)N2CCC(C)(C(=O)O)CC2)cc(-c2cc(C(C)(C)C)c3c(c2)C2(CCO3)CC2)n1CC1CCCCC1 : pIC50 (REN) value = 7.2

Per the record, Cc1c(C(=O)N(C)C2CCOCC2)cc(-c2ccc(S(=O)(=O)NC(C)(C)C)c(C(C)(C)C)c2)n1CC1CCCCC1 has pIC50 (REN) of 7.7

Note to self: pIC50 (REN) recorded for Cc1c(C(=O)NC2CCOCC2)cc(-c2cnc(S(=O)(=O)NC(C)(C)C)c(C(F)(F)F)c2)n1CC1CCCCC1 was 6.6

Sample Cc1c(C(=O)NCC(C)(C)O)cc(-c2cc(C(C)(C)C)cc(C(=O)NC(C)(C)C)c2Cl)n1CC1CCCCC1 ; pIC50 (REN) observed: 6.1

Record Cc1c(C(=O)NCC(C)(C)C(N)=O)cc(-c2ccc(S(=O)(=O)NC(C)(C)C)c(C(F)F)c2)n1CC1CCCCC1 . Reported pIC50 (REN): 8.0

What the record says about Cc1c(C(=O)NCC(O)C(F)(F)F)cc(-c2cc(C(C)(C)C)c3c(c2)C2(CCO3)CC2)n1CC1CCCCC1 (stereo not drawn) : pIC50 (REN) is 6.6

For reference, reported pIC50 (REN) for Cc1c(S(=O)(=O)NC(C)(C)C)ccc(-c2cc(C(=O)NC3CCOCC3)c(C)n2CC2CCCCC2)c1C(F)(F)F stands at 7.7

get_value(item= Cc1c(C(=O)NC2COC2)cc(-c2cc(CN3CCOCC3)cc(C(C)(C)C)c2)n1CC1CCCCC1 , readout=pIC50 (REN)) returns 7.3

pIC50 (REN) reading for Cc1c(C(=O)NCC(C)(C)C(=O)NCCCO)cc(-c2cc(C(C)(C)C)c3c(c2)C2(CCO3)CC2)n1CC1CCCCC1 : 8.2

====

# SYSTEM UNDER TEST: RORγ (UniProt P51449)
# METHOD: RORγ Gal4 Reporter Gene Assay in 293T cells (firefly and renilla luciferase)
# Format: cell-based, human
# MEASUREMENT CONTEXT: third value of the cell; Gal4 reporter gene assay in 293T cells, renilla normalised luciferase
ASSAY ENDPOINT: pIC50 (REN)
Give the figure by itself; no unit, no explanation.

The reported value for Cc1c(C(=O)N[C@H]2C[C@H](C(=O)O)C2)cc(-c2cc(C(=O)N[C@H](C)C(F)(F)F)cc(C3(C)CC3)c2)n1CC1CCCCC1 in terms of pIC50 (REN) is 7.4

What the record says about CCC(C)(C)NS(=O)(=O)c1ccc(-c2cc(C(=O)NC3CCOCC3)c(C)n2CC2CCCCC2)cc1C(F)(F)F : pIC50 (REN) is 8.3

The reported value for Cc1c(C(=O)N2CC3(CCS(=O)(=O)CC3)C2)cc(-c2ccc(S(=O)(=O)NC(C)(C)C)c3ccccc23)n1CC1CCCCC1 in terms of pIC50 (REN) is 8.0

What the record says about Cc1c(C(=O)NCC2(C(=O)O)CCOCC2)cc(-c2cc(C(C)(C)C)c3c(c2)C2(CCO3)CC2)n1CC1CCCCC1 : pIC50 (REN) is 6.8

Field pIC50 (REN) (entry Cc1c(C(=O)N2CCC(C(=O)O)CC2)cc(-c2cc(C(C)(C)C)c3c(c2)C2(CCO3)CC2)n1CC1CCCCC1 ) reads 6.9

According to the records, this compound Cc1c(C(=O)NCc2nc(C(=O)O)co2)cc(-c2cc(C(C)(C)C)c3c(c2)C2(CCO3)CC2)n1CC1CCCCC1 displays pIC50 (REN) of 6.0

What the record says about Cc1c(C(=O)NCC2(C(=O)O)CCOCC2)cc(-c2ccc(S(=O)(=O)NC(C)(C)C)c(C(F)(F)F)c2)n1CC1CCCCC1 : pIC50 (REN) is 5.7

====

# SYSTEM UNDER TEST: UniProt:P51449
# METHOD: RORγ Gal4 Reporter Gene Assay in 293T cells (firefly and renilla luciferase)
# Assay type: cell-based, human
# MEASUREMENT CONTEXT: third value of the cell; Gal4 reporter gene assay in 293T cells, renilla normalised luciferase
Please provide measured pIC50 (REN) for the entries that follow.
Just the number, please, no unit attached.

pIC50 (REN) reading for CCCNS(=O)(=O)c1ccc(-c2cc(C(=O)NC3CCOCC3)c(C)n2CC2CCCCC2)cc1C(F)(F)F [17/111] : 7.3

For Cc1c(C(=O)NC2COC2)cc(-c2cc(C(C)(C)C)cc(C(C)(C)C)c2)n1CC1CCC(C)CC1 (stereo not drawn) [1/114] the compound record lists pIC50 (REN) as 6.8

For reference, reported pIC50 (REN) for Cc1c(S(=O)(=O)NC(C)(C)C)ccc(-c2cc(C(=O)NCCC(C)(C)C(=O)O)c(C)n2CC2CCCCC2)c1C(F)(F)F [17/286] stands at 7.5

Lab note: Cc1c(C(=O)NCC(C)(C)NC(=O)CO)cc(-c2cc(C(C)(C)C)c3c(c2)C2(CCO3)CC2)n1CC1CCCCC1 [17/30] gave pIC50 (REN) of 7.7

// recorded pIC50 (REN) for Cc1c(C(N)=O)cc(-c2ccc(S(=O)(=O)NC(C)(C)C)c(C(C)(C)C)c2)n1CC1CCCCC1 [1/13] : 6.1

Note to self: pIC50 (REN) recorded for Cc1c(C(=O)NC2CCOCC2)cc(-c2ccc(S(=O)(=O)NC(C)(C)C)c(OC(F)(F)F)c2)n1CC1CCCCC1 [17/166] was 8.0

The measured pIC50 (REN) associated with Cc1c(C(=O)NC2CCOCC2)cc(-c2ccc(S(=O)(=O)NC(C)(C)C)c3ccccc23)n1CC1CCC1 [17/242] reads 7.6

pIC50 (REN) for Cc1c(C(=O)NC2CCOCC2)cc(-c2cc(Cl)c(S(N)(=O)=O)c(C(F)(F)F)c2)n1CC1CCCCC1 [19/1] is 6.8

Record summary for Cc1c(C(=O)NCC2(O)CC[S+]([O-])CC2)cc(-c2cc(C(C)(C)C)c3c(c2)C2(CCO3)CC2)n1CC1CCCCC1 (stereo not drawn) [17/38] : reported pIC50 (REN) = 6.7

Memo: Cc1c(C(=O)NCCCCCO)cc(-c2ccc(S(=O)(=O)NC(C)(C)C)c(C(C)(C)C)c2)n1CC1CCCCC1 [1/128] , reported pIC50 (REN): 7.2

For Cc1c(C(=O)NC2COC2)cc(-c2cc(C(=O)N(C)C(C)(C)C)nc(C(C)(C)C)c2)n1CC1CCCCC1 [6/1] the compound record lists pIC50 (REN) as 6.7

// Cc1c(C(=O)N2CCS(=O)(=O)CC2)cc(-c2ccc(S(=O)(=O)NC(C)(C)C)c(C(F)(F)F)c2)n1CC1CCCCC1 [17/199] : pIC50 (REN) value = 6.7
